Recorded values, source patent US11834440B2.

# TARGET SYSTEM: QPCTL (Homo sapiens (Human), UniProt Q9NXS2)
# Sequence (Q9NXS2 whole entry, species assumed): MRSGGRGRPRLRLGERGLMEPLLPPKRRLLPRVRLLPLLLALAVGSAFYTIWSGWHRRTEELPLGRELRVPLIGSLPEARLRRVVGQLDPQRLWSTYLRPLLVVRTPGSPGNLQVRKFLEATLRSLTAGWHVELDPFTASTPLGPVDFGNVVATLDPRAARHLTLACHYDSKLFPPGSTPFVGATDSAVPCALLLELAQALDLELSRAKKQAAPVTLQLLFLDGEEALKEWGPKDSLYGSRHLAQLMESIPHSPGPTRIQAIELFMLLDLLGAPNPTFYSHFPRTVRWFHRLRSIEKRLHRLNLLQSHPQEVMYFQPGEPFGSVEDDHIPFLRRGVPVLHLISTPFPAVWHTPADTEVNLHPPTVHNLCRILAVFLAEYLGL

COMPOUND	IC50
Cc1oncc1-c1cc(F)c([C@H]2[C@@H](C3CC3)C(=O)N2c2ccc3[nH]cnc3c2)c(F)c1 (single isomer, unassigned) [Compound 63B]	< 2 nM
Cc1cc(-c2cnn(C(F)(F)F)c2)ncc1[C@H]1[C@@H](C2CC2)C(=O)N1c1ccc2[nH]cnc2c1 (single isomer, unassigned) [Compound 66B]	< 2 nM
C[C@@H]1C(=O)N(c2ccc3[nH]cnc3c2)[C@@H]1c1c(F)cc(-c2cnn(C(F)F)c2)cc1F (single isomer, unassigned) [Compound 17A]	25 to 1000 nM
O=C1[C@H](C2CC2)[C@H](c2c(F)cc(-c3cnn(C(F)(F)F)c3)cc2F)N1c1ccc2[nH]cnc2c1 (single isomer, unassigned) [Compound 35B]	< 2 nM
C[C@H]1C(=O)N(c2ccc3[nH]cnc3c2)[C@H]1c1c(F)cc(-c2cnn(C(F)(F)F)c2)cc1F (single isomer, unassigned) [Compound 14B]	< 2 nM
C[C@H]1C(=O)N(c2ccc3[nH]cnc3c2)[C@H]1c1c(F)cc(N2CCC(F)(F)CC2)cc1F (single isomer, unassigned) [Compound 30B]	2 to 25 nM
O=C1[C@H](C2CC2)[C@H](c2ccc(-c3cnn(C(F)(F)F)c3)cc2)N1c1ccc2[nH]cnc2c1 (single isomer, unassigned) [Compound 55B]	< 2 nM
O=C1[C@@H](C2CC2)[C@@H](c2c(F)cc(C3CC3)cc2F)N1c1ccc2[nH]cnc2c1 (single isomer, unassigned) [Compound 69A]	25 to 1000 nM
O=C1[C@@H](C2CC2)[C@@H](c2c(F)cc(-c3cnn(C(F)(F)F)c3)cc2F)N1c1ccc2[nH]cnc2c1 (single isomer, unassigned) [Compound 35A]	25 to 1000 nM
Cc1cc(-n2cnc(C(F)(F)F)c2)ccc1[C@H]1[C@@H](C2CC2)C(=O)N1c1ccc2[nH]cnc2c1 (single isomer, unassigned) [Compound 74B]	< 2 nM
Cc1ccc(-c2ccc([C@H]3[C@@H](C4CC4)C(=O)N3c3ccc4[nH]cnc4c3)c(C)n2)nn1 (single isomer, unassigned) [Compound 71B]	< 2 nM
